Tested on: Candida glabrata ATCC 2001 (strain H)
Measurement Notes: Antifungal MIC determination (CLSI M27-A3, 96-well)
Assay type: cell-based
Condition Info: strain H; compounds 1-4n and AmB; 48 h, RPMI 1640
Property Measured: MIC-0 (µg/mL)
A number alone suffices; assume µg/mL.

Sample answers from the record:
>>> print(df.to_string())
                         cpd_smiles  property_measured  readout_unit  reading
0    O=c1c2ccccc2sn1-c1cccc2ccccc12              MIC-0         µg/mL     12.5
1          O=c1c2ccccc2sn1-c1ccccn1              MIC-0         µg/mL     12.5
2  O=c1c2ccccc2sn1-c1cc(Br)cc(Br)c1              MIC-0         µg/mL     6.25
3       CCCCCCCCCCCCn1sc2ccccc2c1=O              MIC-0         µg/mL     12.5
4            O=c1c2ccccc2sn1C1CCCC1              MIC-0         µg/mL     0.78
5           O=c1c2ccccc2sn1C1CCCCC1              MIC-0         µg/mL     1.56

For the record C#Cc1ccc(-n2sc3ccccc3c2=O)cc1 , what value of MIC-0 is listed for Candida glabrata ATCC 2001 (strain H)? 6.25

For the record CCCCCCn1sc2ccccc2c1=O , what value of MIC-0 is listed for Candida glabrata ATCC 2001 (strain H)? 1.56

----------
System: C. albicans ATCC 64124 (strain B)
Measurement Notes: microbe, parasite or virus in culture
Assay type: cell-based, Candida albicans
Condition Info: strain B; compounds 1-4n and AmB; 48 h, RPMI 1640
Lab note: anything with MIC-0 below 3 µg/mL is marked Yes; values at 3 µg/mL or higher are marked No.

>>> df
                                   compound                       study_system  discrete_label
0                    O=c1c2ccccc2sn1C1CCCC1  C. albicans ATCC 64124 (strain B)             Yes
1  O=c1c2ccccc2[s+]([O-])n1C1CCCCCCC1 (centres unmarked)  C. albicans ATCC 64124 (strain B)              No

Could you now consider this next compound?
Dear colleague, could you confirm whether MIC-0 of CC(C)c1ccc(-n2sc3ccccc3c2=O)cc1 falls below 3 µg/mL? Thanks. No

----------
Tested on: Aspergillus nidulans ATCC 38163 (strain L)
Measurement Notes: Antifungal MIC determination, filamentous fungi spores
Assay type: cell-based
Condition Info: strain L; spores
Entries annotated with measured MIC-0
A number alone suffices; assume µg/mL.

Sample answers from the record:
                          compound                              study_system  readout_unit  reading
0   Cc1cc(C)cc(-n2sc3ccccc3c2=O)c1  Aspergillus nidulans ATCC 38163 (strain L)         µg/mL     12.5
1      O=c1c2ccccc2sn1-c1ccc(F)cc1  Aspergillus nidulans ATCC 38163 (strain L)         µg/mL     12.5
2   O=c1c2ccccc2sn1-c1cccc2ccccc12  Aspergillus nidulans ATCC 38163 (strain L)         µg/mL     12.5
3     O=c1c2ccccc2sn1-c1ccc(Br)cc1  Aspergillus nidulans ATCC 38163 (strain L)         µg/mL     12.5
4  CC(C)c1ccc(-n2sc3ccccc3c2=O)cc1  Aspergillus nidulans ATCC 38163 (strain L)         µg/mL     6.25

Give the measured MIC-0 of O=c1c2ccccc2sn1-c1cc(Br)cc(Br)c1 . 3.13

Give the measured MIC-0 of O=c1c2ccccc2sn1CCCc1ccccc1 . 0.20

Give the measured MIC-0 of O=c1c2ccccc2[se]n1-c1ccccc1 [Compound 1, ebselen, reference compound] . 1.56

----------
Test system: C. albicans ATCC MYA-2876(S) (strain C)
Measurement Notes: Antifungal MIC determination (CLSI M27-A3, 96-well)
Assay type: cell-based, Candida albicans
Condition Info: strain C; compounds 1-4n and AmB; 48 h, RPMI 1640
Property Measured: MIC-0

Sample answers from the record:
>>> print(df.to_string())
                                   compound  property_measured      reading
0  CC(C)CCn1c(=O)c2ccccc2[s+]1[O-] (stereo not drawn)              MIC-0  >12.5 µg/mL
1            O=c1c2ccccc2sn1-c1cccc2ccccc12              MIC-0  >12.5 µg/mL

Give the measured MIC-0 of C#Cc1ccc(-n2sc3ccccc3c2=O)cc1 . >12.5 µg/mL

----------
Entries annotated with measured MIC-0
Tested on: C. albicans ATCC 64124 (strain B)
Measurement Notes: microbe, parasite or virus in culture
Type: cell-based, Candida albicans
Condition Info: strain B; compounds 1-4n and AmB; 48 h, RPMI 1640
A number alone suffices; assume µg/mL.

>>> df
                       cpd_smiles  property_measured  readout_unit  reading
0    O=c1c2ccccc2sn1-c1cccc(Br)c1              MIC-0         µg/mL     12.5
1  O=c1c2ccccc2sn1-c1cccc2ccccc12              MIC-0         µg/mL     12.5

Give the measured MIC-0 of O=c1c2ccccc2sn1C1CCCCC1 . 1.56

Give the measured MIC-0 of C#Cc1ccc(-n2sc3ccccc3c2=O)cc1 . 12.5

Give the measured MIC-0 of O=c1c2ccccc2sn1-c1ccccn1 . 6.25

Give the measured MIC-0 of O=c1c2ccccc2sn1C1CCCCCC1 . 1.56

Give the measured MIC-0 of CCCCCn1sc2ccccc2c1=O . 0.39

Give the measured MIC-0 of CC(C)Cn1sc2ccccc2c1=O . 1.56

----------
Entries annotated with measured MIC-0
Tested on: Aspergillus nidulans ATCC 38163 (strain L)
Measurement Notes: Antifungal MIC determination, filamentous fungi spores
Format: cell-based
Condition Info: strain L; spores

>>> df
                       molecule       reading
0  O=c1c2ccccc2sn1-c1ccc(Cl)cn1   >12.5 µg/mL
1          CCCCCn1sc2ccccc2c1=O   ≤0.02 µg/mL
2         CCCCCCn1sc2ccccc2c1=O  ≤≤0.02 μg/mL

For the record CC(C)Cn1c(=O)c2ccccc2[s+]1[O-] (stereo not shown) , what value of MIC-0 is listed for Aspergillus nidulans ATCC 38163 (strain L)? >12.5 µg/mL

For the record CCCCCCCCCCCCn1sc2ccccc2c1=O , what value of MIC-0 is listed for Aspergillus nidulans ATCC 38163 (strain L)? >12.5 µg/mL

For the record O=c1c2ccccc2[s+]([O-])n1C1CCCCCCC1 (stereo not shown) , what value of MIC-0 is listed for Aspergillus nidulans ATCC 38163 (strain L)? >12.5 µg/mL

For the record CC(C)CCn1c(=O)c2ccccc2[s+]1[O-] (stereo not shown) , what value of MIC-0 is listed for Aspergillus nidulans ATCC 38163 (strain L)? >12.5 µg/mL

Cited source: patent US10544112B2
